- assayedSystem: Prostaglandin G/H synthase 1 (Ovis aries)
- Sequence (P05979 whole entry): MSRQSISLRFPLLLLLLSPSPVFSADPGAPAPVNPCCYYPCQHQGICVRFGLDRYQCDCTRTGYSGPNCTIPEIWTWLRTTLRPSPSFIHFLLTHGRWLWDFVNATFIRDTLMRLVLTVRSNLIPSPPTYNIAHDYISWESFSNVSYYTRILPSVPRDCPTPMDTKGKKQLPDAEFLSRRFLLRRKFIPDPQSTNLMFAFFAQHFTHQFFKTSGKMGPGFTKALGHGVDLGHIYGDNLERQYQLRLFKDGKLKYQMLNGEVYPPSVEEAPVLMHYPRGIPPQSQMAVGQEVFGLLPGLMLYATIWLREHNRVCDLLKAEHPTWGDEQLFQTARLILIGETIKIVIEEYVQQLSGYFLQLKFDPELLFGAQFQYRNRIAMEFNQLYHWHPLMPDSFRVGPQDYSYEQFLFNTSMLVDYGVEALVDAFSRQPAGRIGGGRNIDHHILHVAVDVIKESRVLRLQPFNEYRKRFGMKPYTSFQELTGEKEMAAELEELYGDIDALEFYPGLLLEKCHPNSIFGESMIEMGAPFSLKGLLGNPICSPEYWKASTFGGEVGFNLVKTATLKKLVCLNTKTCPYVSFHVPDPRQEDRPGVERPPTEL
pIC50: −log10 of the molar value.
endpointName: pIC50

// known answers, use as guide
[[record]]
compound = "S=C1NN2C(c3ccccc3)=CC(c3ccc(Cl)cc3)N=C2S1 (configuration not stated)"
endpointname = "pIC50"
measurement = 4.51

[[record]]
compound = "N=c1cc(Nc2ccc(S(=O)(=O)Nc3ccccn3)cc2)n2[nH]c(=S)sc2n1"
endpointname = "pIC50"
measurement = "< 4.30"

[[record]]
compound = "Cc1ccc(/C=N/c2n[nH]c(=S)s2)cc1"
endpointname = "pIC50"
measurement = "< 4.30"

[[record]]
compound = "O=C1CSC2SC(/N=C/c3ccc(Cl)cc3)=NN12 (configuration not stated)"
endpointname = "pIC50"
measurement = "< 4.30"

[[record]]
compound = "N=c1cc(Nc2ccc(S(=O)(=O)Nc3nccs3)cc2)n2[nH]c(=S)sc2n1"
endpointname = "pIC50"
measurement = "< 4.30"


Could I get pIC50 for every one of these entries?
1. COc1ccc(C2C=C(c3ccccc3)N3NC(=S)SC3=N2)cc1 (configuration not stated)
2. O=S(=O)(Nc1nccs1)c1ccc(NCNc2n[nH]c(=S)s2)cc1

Response:
1: 5.87; 2: < 4.30

* * *

- Test system: Rattus norvegicus
- methodNotes: Ulcerogenic activity in Wistar rat assessed as appearance of ulcers and erosions in stomach by measuring ulcer index at 100 mg/kg, po measured after 4 hrs
- Type: toxicity, organism-based
- conditionInfo: in vivo
Hi there, I'd appreciate the recorded UI for every entry that follows.
Give bare numbers.

In the examples that follow, each entry is paired with its recorded UI.
[[record]]
compound = "COc1ccc(/C=N/C2=NN3C(=O)CSC3S2)cc1 (configuration not stated)"
measurement = 0.05

[[record]]
compound = "S=c1[nH]nc(/N=C/c2ccc(Br)cc2)s1"
measurement = 0

[[record]]
compound = "N#CC1=C(N)N=C2SC(=S)NN2C1c1ccc(Br)cc1 (configuration not stated)"
measurement = 0.05


Below are 4 compounds. Give each one its UI.
1. COc1ccc(/C=N/c2n[nH]c(=S)s2)cc1
2. N=c1cc(Nc2ccc(S(=O)(=O)Nc3ccccn3)cc2)n2[nH]c(=S)sc2n1
3. N=c1cc(Nc2ccc(S(=O)(=O)Nc3nccs3)cc2)n2[nH]c(=S)sc2n1
4. O=C1CSC(c2ccc(Br)cc2)N1c1n[nH]c(=S)s1 (configuration not stated)

Response:
[0.38, 0.05, 0.05, 0.45]
